List of pIC50 values.
Target: PTK2 (Homo sapiens, UniProt Q05397)
Construct: purchased Invitrogen PV3832
Sequence (Q05397 whole entry): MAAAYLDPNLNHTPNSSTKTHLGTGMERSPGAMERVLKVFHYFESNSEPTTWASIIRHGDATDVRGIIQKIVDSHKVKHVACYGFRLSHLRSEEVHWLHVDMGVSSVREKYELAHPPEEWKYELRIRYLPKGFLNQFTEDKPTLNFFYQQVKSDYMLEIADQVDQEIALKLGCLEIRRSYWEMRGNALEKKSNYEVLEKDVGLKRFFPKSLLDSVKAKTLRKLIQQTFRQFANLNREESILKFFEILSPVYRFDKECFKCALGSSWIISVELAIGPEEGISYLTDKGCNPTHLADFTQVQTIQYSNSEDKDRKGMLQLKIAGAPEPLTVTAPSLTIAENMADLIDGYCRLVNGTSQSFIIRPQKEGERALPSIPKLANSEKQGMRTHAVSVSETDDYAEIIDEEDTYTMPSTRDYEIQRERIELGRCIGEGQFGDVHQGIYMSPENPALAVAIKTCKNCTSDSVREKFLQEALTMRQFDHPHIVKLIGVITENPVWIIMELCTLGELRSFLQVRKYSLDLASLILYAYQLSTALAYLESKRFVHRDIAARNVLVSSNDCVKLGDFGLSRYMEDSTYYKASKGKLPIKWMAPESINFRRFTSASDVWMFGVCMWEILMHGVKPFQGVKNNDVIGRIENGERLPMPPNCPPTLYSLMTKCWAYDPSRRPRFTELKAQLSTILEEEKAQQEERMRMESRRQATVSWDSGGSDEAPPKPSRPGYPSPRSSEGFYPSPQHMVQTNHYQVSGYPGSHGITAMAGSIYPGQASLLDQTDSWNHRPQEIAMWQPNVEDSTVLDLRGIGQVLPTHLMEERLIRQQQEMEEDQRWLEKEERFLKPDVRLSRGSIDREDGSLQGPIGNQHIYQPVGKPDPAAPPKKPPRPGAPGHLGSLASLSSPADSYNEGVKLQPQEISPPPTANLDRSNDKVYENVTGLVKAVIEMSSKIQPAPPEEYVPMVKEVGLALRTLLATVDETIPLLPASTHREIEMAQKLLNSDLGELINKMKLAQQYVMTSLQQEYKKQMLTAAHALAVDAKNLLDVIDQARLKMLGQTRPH
Experiment: PTK2 enzyme test Assay 2 (DELFIA, poly-Glu-Tyr substrate, PT66 antibody)
Format: biochemical
Conditions: Assay 2 (values marked *); 1 h pre-incubation, 50 μM ATP mix, final DMSO 0.5%
pIC50: −log10 of the molar value.
measureName: pIC50

1) COc1ccc(NC(=O)C2CCN(C)CC2)cc1Nc1ncc(C(F)(F)F)c(N[C@@H]2Cc3ccccc3[C@H]2N(C)S(C)(=O)=O)n1: 9.21
2) COc1cc(N2CCNCC2)c(C)cc1Nc1ncc(C(F)(F)F)c(N[C@@H]2Cc3ccccc3[C@H]2N(C)S(C)(=O)=O)n1: 9.18
3) COc1cc(C(=O)NN2CCN(C)CC2)ccc1Nc1ncc(C(F)(F)F)c(N[C@@H]2Cc3ccccc3[C@H]2N(C)S(C)(=O)=O)n1: 9.33
4) COc1cc(N2CCNCC2)c(Cl)cc1Nc1ncc(C(F)(F)F)c(N[C@@H]2Cc3ccccc3[C@H]2N(C)S(C)(=O)=O)n1: 9.12
5) CN1CCC(NC(=O)c2cccc(Nc3ncc(C(F)(F)F)c(N[C@@H]4Cc5ccccc5[C@H]4N(C)S(C)(=O)=O)n3)c2)CC1: 9.59
6) COc1ccc(C(=O)NCCN(C)C)cc1Nc1ncc(C(F)(F)F)c(N[C@@H]2Cc3ccccc3[C@H]2N(C)S(C)(=O)=O)n1: 9.15
7) COc1ccc(NC(=O)C2CCN(C)C2)cc1Nc1ncc(C(F)(F)F)c(N[C@@H]2Cc3ccccc3[C@H]2N(C)S(C)(=O)=O)n1 (some centres unmarked): 9.37
8) COc1ccc(C(=O)NC2CCN(C)CC2)cc1Nc1ncc(C(F)(F)F)c(N[C@@H]2Cc3ccccc3[C@H]2N(C)S(C)(=O)=O)n1: 9.43
9) COc1cc(N2CCN(C(C)(C)C)CC2)ccc1Nc1ncc(C(F)(F)F)c(N[C@@H]2Cc3ccccc3[C@H]2N(C)S(C)(=O)=O)n1: 9.22
10) COc1cc(F)c(C(=O)NC2CCN(C)CC2)cc1Nc1ncc(Cl)c(N[C@@H]2Cc3ccccc3[C@H]2N(C)S(C)(=O)=O)n1: 9.52
11) CCc1cc(Nc2ncc(C(F)(F)F)c(N[C@@H]3Cc4ccccc4[C@H]3N(C)S(C)(=O)=O)n2)c(OC)cc1N1CCN(C)CC1: 9.17
12) COc1cc(F)c(C(=O)NC2CCN(C)CC2)cc1Nc1ncc(C(F)(F)F)c(N[C@@H]2Cc3ccccc3[C@H]2N(C)S(C)(=O)=O)n1: 9.44
13) COc1cc(NC(=O)N(C)C)ccc1Nc1ncc(C(F)(F)F)c(N[C@@H]2Cc3ccccc3[C@H]2N(C)S(C)(=O)=O)n1: 9.64
14) CCc1cc(Nc2ncc(C(F)(F)F)c(N[C@@H]3Cc4ccccc4[C@H]3N(C)S(C)(=O)=O)n2)c(OC)cc1N1CCN(C(C)(C)C)CC1: 9.17
15) COc1cc(C(=O)NCCN(C)C)ccc1Nc1ncc(C(F)(F)F)c(N[C@@H]2CCc3ccccc3[C@H]2N(C)S(C)(=O)=O)n1: 7.80
16) COc1ccc(C(=O)N(C)C2CCN(C)CC2)cc1Nc1ncc(C(F)(F)F)c(N[C@@H]2Cc3ccccc3[C@H]2N(C)S(C)(=O)=O)n1: 9.37
17) COc1ccc(C(=O)N(C)CCN2CCCC2)cc1Nc1ncc(C(F)(F)F)c(N[C@@H]2Cc3ccccc3[C@H]2N(C)S(C)(=O)=O)n1: 9.36
18) COc1ccc(C(=O)NC2CCN(C)CC2)cc1Nc1ncc(Cl)c(N[C@@H]2Cc3ccccc3[C@H]2N(C)S(C)(=O)=O)n1: 9.22
19) COc1cc(N2CCN(C(C)(C)C)CC2)c(C)cc1Nc1ncc(C(F)(F)F)c(N[C@@H]2Cc3ccccc3[C@H]2N(C)S(C)(=O)=O)n1: 9.08
20) COc1cc(N2CCN(C(C)(C)C)CC2)ccc1Nc1ncc(C(F)(F)F)c(N[C@@H]2Cc3ccccc3[C@H]2NS(C)(=O)=O)n1: 9.12

Measured values drawn from patent US8410126B2 for this set.
